- target or test system: Human immunodeficiency virus type 1 reverse transcriptase (Human immunodeficiency virus 1)
- test: Inhibition of HIV1 LAI clade C 93IN101 reverse transcriptase RNase H activity by real time monitoring assay
Provide the reported pIC50 of each item.
Numbers only, as −log10 of the molar value.

O=C(OCC(=O)N(CC1CCCO1)c1nc(-c2ccc(Br)cc2)cs1)c1ccc([N+](=O)[O-])o1 (configuration not stated) ... 4.49

[Q] Which pIC50 is reported for this compound? `O=C(COC(=O)c1ccc([N+](=O)[O-])o1)NC12CC3CC(CC(C3)C1)C2`
[A] 4.58

* * *

- target or test system: Human immunodeficiency virus type 1 reverse transcriptase (Human immunodeficiency virus 1)
- test: Inhibition of HIV1 LAI clade B reverse transcriptase RNase H activity by real time monitoring assay
The source made the active and inactive calls. No cut-off for these calls is given here.
value kind: Activity

Field: example entries. Status: answers known.
O=C(COC(=O)c1ccc([N+](=O)[O-])o1)Nc1cc(C(F)(F)F)cc(C(F)(F)F)c1 ... Active
O=C(COC(=O)c1ccc[nH]1)NC12CC3CC(CC(C3)C1)C2 ... inactive
CCOC(=O)c1c(NC(=O)COC(=O)c2ccc([N+](=O)[O-])o2)sc(C)c1C ... inactive
CCOC(=O)c1c(-c2cccs2)csc1NC(=O)COC(=O)c1ccc([N+](=O)[O-])o1 ... inactive
O=C(COC(=O)c1ccc([N+](=O)[O-])o1)Nc1ncc(C(F)(F)F)cc1Cl ... Active
CCOC(=O)c1sc(N(Cc2ccccc2)C(=O)COC(=O)c2ccc([N+](=O)[O-])o2)nc1C ... inactive

Would you mind listing Activity for each of the following molecules?
1. O=C(COC(=O)c1cccnc1Cl)NC12CC3CC(CC(C3)C1)C2
2. O=C(COC(=O)c1ccc([N+](=O)[O-])o1)Nc1ccccc1F
3. O=C(COC(=O)c1cncc(Br)c1)NC12CC3CC(CC(C3)C1)C2
4. Cc1ccc(NC(=O)COC(=O)c2ccc([N+](=O)[O-])o2)cc1

[A]
1: inactive; 2: inactive; 3: inactive; 4: inactive

Would you mind listing Activity for each of the following molecules?
1. O=C1CCC(C(=O)OCC(=O)NC23CC4CC(CC(C4)C2)C3)N1 (stereo not drawn)
2. Cc1ccc(NC(=O)COC(=O)c2ccc([N+](=O)[O-])o2)cc1S(=O)(=O)N1CCCCCC1

[A]
1. inactive
2. Active

* * *

- target or test system: Human immunodeficiency virus type 1 reverse transcriptase (Human immunodeficiency virus 1, UniProt Q72547)
- test: Inhibition of HIV1 LAI clade B reverse transcriptase RNase H activity by real time monitoring assay
Provide the reported IC50 of each item.
Answers are plain numbers, in µM.

O=C(COC(=O)c1ccc([N+](=O)[O-])o1)NC12CC3CC(CC(C3)C1)C2 ... 29.6

Shifting focus to the compound that follows.
[Q] Which IC50 is reported for this compound? O=C(OCC(=O)N(CC1CCCO1)c1nc(-c2ccc(Br)cc2)cs1)c1ccc([N+](=O)[O-])o1 (configuration not stated)
[A] 26.7

* * *

- target or test system: Human immunodeficiency virus type 1 reverse transcriptase (Human immunodeficiency virus 1)
- test: Inhibition of HIV1 LAI clade B reverse transcriptase RNase H activity by real time monitoring assay
Active and inactive are the calls of the source. The rule behind the calls is not given here.
Your response should consist of one outcome taken from t (active), f (inactive)

O=C(COC(=O)c1ccc([N+](=O)[O-])o1)Nc1nc2ccccc2s1 ... t
O=C(COC(=O)c1ccc([N+](=O)[O-])o1)Nc1ccc(Cl)c(S(=O)(=O)N2CCOCC2)c1 ... t
CCOc1cc(N2CCOCC2)cc(OCC)c1NC(=O)COC(=O)c1ccc([N+](=O)[O-])o1 ... f
O=C(COC(=O)c1ccc([N+](=O)[O-])o1)Nc1ccc(F)cc1F ... f
O=C(COC(=O)c1ccccn1)NC12CC3CC(CC(C3)C1)C2 ... f

[Q] Field: outcome | Entry: `CN(C)S(=O)(=O)c1cccc(NC(=O)COC(=O)c2ccc([N+](=O)[O-])o2)c1`
[A] t
